- protocol-notes: In vivo preclinical pharmacokinetic analysis
- Design: species or system C57BL/6 mice
- assay-setup: mouse, blood, ip; C57BL/6 mice, 20 mg/kg i.p., mean
metric-name: Cmax

> print(dat)
                                        mol  metric.name  observed.measurement
1  COc1ccc(C(=O)C=CSc2nc3ccc(C)cc3[nH]2)cc1         Cmax             216 ng/mL
2  CCc1ccc(C(=O)C=CSc2nc3ccc(C)cc3[nH]2)cc1         Cmax             446 ng/mL

---

- Test system: HL-60
- protocol-notes: Cell proliferation MTS assay
- Format: cell-based
- assay-setup: Homo sapiens; HL-60, MTS, 24 hours
metric-name: IC50 (µM)

> print(dat)
                                        mol  subject.of.test  metric.name  observed.measurement
1  CCc1ccc(C(=O)C=CSc2nc3ccc(C)cc3[nH]2)cc1            HL-60         IC50                   4.3

---

- Test system: Cord Blood CD34+
- protocol-notes: Cell proliferation MTS assay
- Type: cell-based, human
- assay-setup: Homo sapiens; Cord Blood CD34+, MTS, 24 hours
metric-name: IC50

> print(dat)
                                        mol   subject.of.test  metric.name  observed.measurement
1  CCc1ccc(C(=O)C=CSc2nc3ccc(C)cc3[nH]2)cc1  Cord Blood CD34+         IC50               > 10 µM

---

- Tested on: KG-1a
- protocol-notes: Cell proliferation MTS assay
- Format: cell-based
- assay-setup: Homo sapiens, 24 hours
metric-name: IC50

> print(dat)
                                        mol  observed.measurement
1  CCc1ccc(C(=O)C=CSc2nc3ccc(C)cc3[nH]2)cc1               > 10 µM

---

- protocol-notes: In vivo preclinical pharmacokinetic analysis
- Set-up: species or system C57BL/6 mice
- assay-setup: mouse, blood, ip; C57BL/6 mice, 20 mg/kg i.p., mean
Entries and their AUC(0-inf)
metric-name: AUC(0-inf) (ng·h/mL)

> print(dat)
                                   compound     unit  observed.measurement
1  CCc1ccc(C(=O)C=CSc2nc3ccc(C)cc3[nH]2)cc1 [UC-764864]  ng·h/mL                   461
2  COc1ccc(C(=O)C=CSc2nc3ccc(C)cc3[nH]2)cc1 [UC-764865]  ng·h/mL                   413

---

- System: MOLM-13
- protocol-notes: Cell proliferation MTS assay / cytotoxicity screen
- Assay type: cell-based, human
- assay-setup: Homo sapiens; MOLM-13, MTS, 24 hours
pIC50: −log10 of the molar value.
metric-name: pIC50

> print(dat)
                                        mol  observed.measurement
1  CCc1ccc(C(=O)C=CSc2nc3ccc(C)cc3[nH]2)cc1                  5.72

---

The reader will find reported half-life values listed item by item below.
- protocol-notes: Plasma stability
- Format: in vitro ADME
- Parameters: dose or concentration left out as unconfirmed
- assay-setup: mouse; C57/Bl6 plasma, concentration 1 (mM), K2EDTA; read-out: Plasma Stability T ½
metric-name: half-life (min)

> print(dat)
                                   compound  unit  observed.measurement
1  CCc1ccc(C(=O)C=CSc2nc3ccc(C)cc3[nH]2)cc1 [UC-764864]   min                  31.8
2  COc1ccc(C(=O)C=CSc2nc3ccc(C)cc3[nH]2)cc1 [UC-764865]   min                  53.6
